Hey, just so you know, these numbers are from PubChem BioAssay (NCI).

molecules and their reported TGI
- Tested on: CAKI-1 renal
- Experiment summary: NCI tumour cell line growth inhibition, 384-well format

Some molecules with recorded TGI:
- Cc1cc(Nc2ncnc3ccc(NC4=NC(C)(C)CO4)cc23)ccc1Oc1ccn2ncnc2c1: 12.6 µM
- O=C(Cc1cccc(OC(F)(F)F)c1)Nc1ccc(CCCCc2nnc(NC(=O)Cc3ccccn3)s2)nn1: 18 µM
- C=CC(=O)N[C@H]1CCOC[C@H]1Nc1ncc2cc(-c3c(Cl)c(OC)cc(OC)c3Cl)ccc2n1: 82.4 µM
- c1cn2cc(-c3ccc4cn[nH]c4c3)nc(Nc3ccc(N4CCOCC4)cc3)c2n1: 25.3 µM

API: the following record is the query input.
Challenge: // returns reported TGI for input Cn1cc(-c2cnc3ccc4ccc(CS(=O)(=O)NCc5ccccn5)cc4c(=O)c3c2)cn1
Response given: > 100 µM
